The values you see were collected from patent US10844013B2.

The following compounds are listed with their measured IC50 values.
- System: MCF-7 cells
- assay summary: Radioactive glucose uptake in MCF-7 cells
- Assay type: cell-based
- assay conditions: Homo sapiens, MCF7, 3H-2DG uptake
- Experimental: Example 157: Radioactive Glucose Uptake in MCF-7 Cells Assay Protocol • 1. Seed approximately 12,000 MCF-7 cells cultured without insulin per well in 96-well plates (BIOCOAT, #356690) and let the cells sit in hood for 30 min. (Cell culture medium: DMEM+10% FBS). • 2. Put the cell culture plates in TC incubator (5% CO2, 37° C.) and incubate overnight. • 3. […] Shake the plate at 1000 rpm for 30 min and count in a MicroBeta plate reader.

Check out these entries, answers already filled in.
{"compound": "Cc1nc(C)c(C(=O)N2CCN(c3ccccc3S(N)(=O)=O)CC2)cc1NC1CCN(c2ccccc2C#N)CC1 [I-12]", "IC50": "> 10000 nM"}
{"compound": "Cc1cc(C)c(C(=O)N2CCN(c3nnnn3C)[C@H](CO)C2)cc1NC1CCN(c2ccccc2C#N)CC1 [I-91]", "IC50": "1000 to 3000 nM"}
{"compound": "Cc1cc(C)c(N(CCO)C2CCN(c3ccccc3C#N)CC2)cc1C(=O)N1CCN(c2ccccc2S(N)(=O)=O)CC1 [I-1]", "IC50": "10 to 1000 nM"}
{"compound": "Cc1cc(C)c(C(=O)N2CCN(c3ccccc3C#N)[C@H](CO)C2)cc1NC1CCN(c2ccccc2C#N)CC1 (single isomer, unassigned) [I-79]", "IC50": "10 to 1000 nM"}
{"compound": "Cc1cc(C)c(C(=O)N2CCN(c3cccc(F)c3S(N)(=O)=O)C[C@@H]2C)c(C)c1NC1CCN(c2ccc(F)cc2C#N)CC1 [I-182]", "IC50": "10 to 1000 nM"}

For the next question, use this compound.
State IC50 (MCF-7 cells) of Cc1cc(C)c(C(=O)N2CCN(c3ccccc3)[C@H](CO)C2)c(C)c1NC1CCN(c2ccncn2)CC1 [I-166] . > 10000 nM

* * *

- System: 293T cells
- assay summary: ATP/Rotenone assay, glucose dose response, 293T cells
- Assay type: cell-based
- assay conditions: Homo sapiens, HEK-293T, 10 uM rotenone pre-treat, 15 min glucose, Celltiter-Glo
readout type: EC50

Using known records, supply EC50 for O=C[C@H](O)[C@@H](O)[C@H](O)[C@H](O)CO ~1 mM

* * *

- Tested on: pS6K1 (p-p70 S6 Kinase (Thr389)) in MCF-7 cells
- assay summary: AlphaLISA Ultra pS6K1 assay
- Assay type: cell-based
- assay conditions: 2 hours compound incubation, read-out: pS6K1 in MCF7: IC50
pIC50: −log10 of the molar value.
The following molecules are listed with their measured pIC50 values.

Check out these entries, answers already filled in.
{"molecule": "Cc1ccc(C(=O)N2CCN(c3ccccc3)C(CO)C2)cc1NC1CCN(c2ccccc2C#N)CC1 (single isomer, unassigned) [I-84]", "readout type": "pIC50", "test value": "5.52 to 6.00"}
{"molecule": "Cc1cc(C)c(C(=O)N2CCN(c3ccccc3S(C)(=N)=O)CC2)cc1NC1CCN(c2ccccc2C#N)CC1 (single isomer, unassigned) [I-50]", "readout type": "pIC50", "test value": "5.52 to 6.00"}
{"molecule": "Cc1cc(C)c(C(=O)N2CCN(c3ccccc3S(C)(=N)=O)CC2)cc1NC1CCN(c2ccccc2C#N)CC1 (single isomer, unassigned) [I-49]", "readout type": "pIC50", "test value": "6.00 to 8.00"}

Using known records, supply pIC50 for Cc1ccc(NC2CCN(c3ccccc3C#N)CC2)cc1C(=O)N1CCN(c2ccccc2)C(CO)C1 (single isomer, unassigned) [I-83] 6.00 to 8.00

Using known records, supply pIC50 for Cc1nc(C)c(C(=O)N2CCN(c3ccccc3)[C@H](CO)C2)c(C)c1NC1CCN(c2ncccc2Cl)CC1 6.00 to 8.00

Using known records, supply pIC50 for Cc1ccc(C(=O)N2CCN(c3ccccc3)C(CO)C2)cc1NC1CCN(c2ccccc2C#N)CC1 (single isomer, unassigned) [I-85] 6.00 to 8.00

Using known records, supply pIC50 for Cc1ccc(NC2CCN(c3ccccc3C#N)CC2)cc1C(=O)N1CCN(c2ccccc2)C(CO)C1 (single isomer, unassigned) [I-82] 5.30 to 5.52
